Assay: Oral bioavailability in Sprague-Dawley rat at 75 mg/kg by HPLC-UV analysis
Assay type: ADME, organism-based
Conditions: in vivo
parameter_measured: bioavailability (%)
# output: bare number, implied unit %

Q. Would you kindly share the measured bioavailability for CC(C)(C)CNc1ncc(Br)c(Nc2ccccc2C(N)=O)n1 ?
A. 15.3

====

# inhibition values compiled below
Biological target: Mitogen-activated protein kinase 9 (Homo sapiens, UniProt P45984)
Sequence (P45984 whole entry, looked up): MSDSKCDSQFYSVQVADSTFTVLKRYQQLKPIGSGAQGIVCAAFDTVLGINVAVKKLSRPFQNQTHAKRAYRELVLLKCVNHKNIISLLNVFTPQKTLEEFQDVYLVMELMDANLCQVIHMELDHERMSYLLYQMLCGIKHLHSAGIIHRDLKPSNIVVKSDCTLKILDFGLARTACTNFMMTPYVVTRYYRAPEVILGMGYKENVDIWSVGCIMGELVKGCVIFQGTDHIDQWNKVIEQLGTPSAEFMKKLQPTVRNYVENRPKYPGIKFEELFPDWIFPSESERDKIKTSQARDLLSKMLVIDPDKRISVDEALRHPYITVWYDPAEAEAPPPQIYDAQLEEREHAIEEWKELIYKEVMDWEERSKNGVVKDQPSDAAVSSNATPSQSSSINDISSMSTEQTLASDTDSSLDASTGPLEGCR
Test: Inhibition of N-terminal GST-tagged recombinant full length human JNK2 expressed in baculovirus infected Sf9 cells using IPTTPITTTYFFFKKK as substrate at 0.1 uM incubated for 60 mins in the presence of ATP by ADP-Glo reagent based luminescence assay relative to control
# output: bare number, implied unit %

Take a look at these entries with their results.
- smiles_text: "CC(C)(C)CNc1ncc(C(N)=O)c(Nc2ccc(NC(N)=O)c(NC(N)=O)c2)n1"
  inhibition / %: -1.81
- smiles_text: "CC(C)(C)CNc1ncc(Cl)c(Nc2ccccc2C(N)=O)n1"
  inhibition / %: 30.3
- smiles_text: "CC(=O)Nc1ccc(Nc2nc(NCC(C)(C)C)ncc2C(N)=O)cc1"
  inhibition / %: 5.74
- smiles_text: "CC(C)(C)CNc1ncc(Br)c(Nc2ccccc2C(N)=O)n1"
  inhibition / %: 43

Q. Would you kindly share the measured inhibition for CC(C)(C)CNc1ncc(F)c(Nc2ccccc2C(N)=O)n1 ?
A. 8.49

Q. Would you kindly share the measured inhibition for COc1cc(Nc2nc(NCC(C)(C)C)ncc2C(N)=O)ccc1O ?
A. 4.17

Q. Would you kindly share the measured inhibition for CC(C)(C)CNc1ncc(C(N)=O)c(Nc2ccccc2)n1 ?
A. 0.03

Q. Would you kindly share the measured inhibition for CC(=O)Oc1ccc(Nc2nc(NCC(C)(C)C)ncc2C(N)=O)cc1 ?
A. -8.39

====

Biological target: Mitogen-activated protein kinase 8 (Homo sapiens)
Sequence (P45983 whole entry): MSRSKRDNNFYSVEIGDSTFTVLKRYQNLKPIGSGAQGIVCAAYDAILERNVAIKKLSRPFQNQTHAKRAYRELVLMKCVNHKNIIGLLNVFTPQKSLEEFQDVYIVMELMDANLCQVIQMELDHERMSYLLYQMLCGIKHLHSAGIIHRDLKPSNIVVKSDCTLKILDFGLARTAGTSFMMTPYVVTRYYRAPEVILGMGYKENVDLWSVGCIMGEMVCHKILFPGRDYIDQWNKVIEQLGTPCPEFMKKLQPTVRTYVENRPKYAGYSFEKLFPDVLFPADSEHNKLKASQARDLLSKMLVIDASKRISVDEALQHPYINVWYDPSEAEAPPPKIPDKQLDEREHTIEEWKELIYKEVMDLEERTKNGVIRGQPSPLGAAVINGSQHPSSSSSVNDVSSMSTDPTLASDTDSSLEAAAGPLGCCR
Test: Inhibition of N-terminal GST-tagged recombinant full length human JNK1 expressed in baculovirus infected Sf9 insect cells using IPTTPITTTYFFFKKK as substrate at 0.1 uM incubated for 60 mins in the presence of ATP by ADP-Glo reagent based luminescence assay relative to control
# inhibition values compiled below
Give me the value, and tack the unit on after it.

- smiles_text: "CC(=O)Oc1ccc(Nc2nc(NCC(C)(C)C)ncc2C(N)=O)cc1"
  result: "33.9%"
- smiles_text: "COc1cc(Nc2nc(NCC(C)(C)C)ncc2C(N)=O)ccc1O"
  result: "56.2%"
- smiles_text: "CC(C)(C)CNc1ncc(C(N)=O)c(Nc2ccc(NC(N)=O)c(NC(N)=O)c2)n1"
  result: "35.4%"
- smiles_text: "CC(C)(C)CNc1ncc(F)c(Nc2ccccc2C(N)=O)n1"
  result: "33%"
- smiles_text: "CC(C)(C)CNc1ncc(C(N)=O)c(Nc2ccc(NC(N)=O)cc2)n1"
  result: "25%"
- smiles_text: "CC(C)(C)CNc1ncc(C(N)=O)c(Nc2ccccc2)n1"
  result: "27.4%"
- smiles_text: "CC(=O)Nc1ccc(Nc2nc(NCC(C)(C)C)ncc2C(N)=O)cc1"
  result: "54.8%"
- smiles_text: "CC(C)(C)CNc1ncc(C(N)=O)c(Nc2ccc(N)c(N)c2)n1"
  result: "43.5%"
- smiles_text: "CC(C)(C)CNc1ncc(Cl)c(Nc2ccccc2C(N)=O)n1"
  result: "65.4%"
- smiles_text: "CC(C)(C)CNc1ncc(Br)c(Nc2ccccc2C(N)=O)n1"
  result: "71.1%"

Q. Would you kindly share the measured inhibition for CC(C)(C)CNc1ncc(C(N)=O)c(Nc2ccc(N)cc2)n1 ?
A. 13.1%
